Listed here are binders together with their documented Kd.
Molecular target: T1, human serum albumin (human, UniProt P02768 25-609)
T1 construct: also called HSA
Experiment: SPR, albumin on chip, pH 7.4;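 also: Human, mouse, rat and cynomolgus serum albumins amine-coupled to carboxyl sensor chips, with a hen egg lysozyme surface measured in parallel as negative control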
property-name: Kd (nM)

1) BA11-C term thiol-maleimide-peg-fluorescein (VNAR, C-terminal thiol conjugated to maleimide-peg-fluorescein, also called BA11-S-mal-Fl) VNAR: TRVDQSPSSLSASVGDRVTITCVLTDTSYPLYSTYWYRKNPGSSNKEQISISGRYSESVNKGTKSFTLTISSLQPEDSATYYCRAMSTNIWTGDGAGTKVEIK : 1.42
2) BA11-oxime-fluorescein (VNAR, C-terminal oxime-linked benzaldehyde-peg-fluorescein) VNAR: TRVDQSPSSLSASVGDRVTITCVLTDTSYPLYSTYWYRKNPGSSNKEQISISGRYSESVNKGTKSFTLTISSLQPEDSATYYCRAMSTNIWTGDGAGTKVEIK : 0.677
3) BA11 C-terminal thiol derivative (VNAR, C-terminal thiol (intein cleavage with cysteamine), also called BA11-SH) VNAR: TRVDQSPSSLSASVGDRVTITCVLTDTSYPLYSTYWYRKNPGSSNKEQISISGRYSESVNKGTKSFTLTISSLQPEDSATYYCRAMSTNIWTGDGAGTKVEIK : 0.774
